Sourced from patent US7569570B2

Can you tell me melting point for the items I'm about to list?

Exam item: For the molecule CCNC(=O)Nc1ccc(-c2sc3c(c2CN(C)CCN2CCCC2=O)c(=O)n(-c2ccc(OCCOC)cc2)c(=O)n3Cc2c(F)cccc2F)cc1 [Example 34] , report melting point.
Marked response: 175 to 177 °C

Exam item: Tell me measured melting point for CCNC(=O)Nc1ccc(-c2sc3c(c2CN(C)CCN2CCCS2(=O)=O)c(=O)n(-c2ccccc2)c(=O)n3Cc2c(F)cccc2F)cc1 [Example 86] please.
Marked response: 210 to 211 °C

Exam item: For the molecule CCNC(=O)Nc1ccc(-c2sc3c(c2CN(C)CCCC(=O)N(C)C)c(=O)n(-c2ccccc2)c(=O)n3Cc2c(F)cccc2F)cc1 [Example 18] , report melting point.
Marked response: 191 to 193 °C

Exam item: Using known records, supply melting point for CCNC(=O)Nc1ccc(-c2sc3c(c2CN(C)CCOC)c(=O)n(-c2ccc(O)cc2)c(=O)n3Cc2c(F)cccc2F)cc1 [Example 103]
Marked response: 260 to 265 °C

Exam item: Supply recorded melting point for CCNC(=O)Nc1ccc(-c2sc3c(c2CN(C)CCC(=O)NC)c(=O)n(-c2ccc(F)cc2)c(=O)n3Cc2c(F)cccc2F)cc1 [Example 30] here.
Marked response: 237 to 239 °C

Exam item: Check the records and state melting point for CCNC(=O)Nc1ccc(-c2sc3c(c2CN(C)CCN(C)Cc2ccccc2)c(=O)n(-c2ccccc2)c(=O)n3Cc2c(F)cccc2F)cc1 [Example 25]
Marked response: 151 to 153 °C
